Tested on: SNB-75
procedure.summary: NCI tumour cell line growth inhibition, 48 h
Activity calls are given as the source filed them. Cut-off read from the data, not from the text of the source: active = GI50 up to about 1.1 µM and inactive = higher.
A correct response names exactly one class from active, inactive

Reference set, count: 5
CC(C)(C)OC(=O)N1N=NC2C1C1CC(OCc3ccccc3)(OCc3ccccc3)C2O1 (stereo not drawn) :: inactive
c1ccc(-c2cccc(-c3ccccn3)n2)nc1 [TERPYRIDINE] :: inactive
Nc1nc(N)c2ncn(-c3ccc(Br)cc3)c2n1 :: inactive
O=C(CCc1ccccc1)ON1C(=S)C(c2ccccc2)(c2ccccc2)N=C1Sc1ccccc1 :: inactive
Cc1cc2c(s1)C(N)CC2=O (stereo not drawn) :: inactive

[in] Field: outcome | Entry: C(#CC1(Nc2ccccc2)CCN(Cc2ccccc2)CC1)C1(Nc2ccccc2)CCN(Cc2ccccc2)CC1
[out] inactive

[in] Field: outcome | Entry: O=C(c1c(F)c(F)c(F)c(F)c1F)N1CCN(C(=O)c2c(F)c(F)c(F)c(F)c2F)C1=S
[out] inactive

[in] Field: outcome | Entry: COc1cc2c(c(OC)c1OC)-c1ccc(SC)c(=O)cc1[C@@H](NC(=O)c1ccc(OC(C)=O)cc1)CC2
[out] active

[in] Field: outcome | Entry: CCOC(=O)NC1CN2CCC1CC2 (stereo not drawn)
[out] inactive

[in] Field: outcome | Entry: COc1ccc(C(=O)c2cc(OC)c(OC)c(OC)c2)cc1
[out] active

[in] Field: outcome | Entry: COC(=O)CCC1(C)C2CCC1(C)/C(=N/O)C2 (stereo not drawn)
[out] inactive

[in] Field: outcome | Entry: C=CC[P@]1(=O)O[C@H](c2ccccc2)[C@H](C)N1C
[out] inactive

[in] Field: outcome | Entry: COc1ccccc1NC(=O)CC(=O)NN
[out] inactive

[in] Field: outcome | Entry: CCOC(=O)CC1C(C(=O)OCC)=Cn2c([nH]c3cccc4cccc2c43)=C1C(=O)OCC (stereo not drawn)
[out] inactive

[in] Field: outcome | Entry: C1CN2CCNCCN(CCN1)CC2
[out] inactive

[in] Field: outcome | Entry: NC(=O)CNC(=O)[C@@H]1CC(OCCC(=O)O)CN1C(=O)C1CCCN1C(=O)OCc1ccccc1 (stereo partly drawn)
[out] inactive

[in] Field: outcome | Entry: c1ccc2c(c1)cc(C1NCCc3nc[nH]c31)c1ccccc12 (stereo not drawn)
[out] inactive

[in] Field: outcome | Entry: Cn1c(=O)nc2n(-c3ccc(O)cc3)c3ccccc3nc-2c1=O
[out] inactive

[in] Field: outcome | Entry: Cc1ccn2c(=O)cc(CN3CCOCC3)nc2c1
[out] inactive

[in] Field: outcome | Entry: CN(C)CCNC(=O)c1cccc2c1nc(-c1ccccc1)c1ccccc12
[out] inactive

[in] Field: outcome | Entry: O=C(CNc1ccc(Cl)cc1Cl)Nn1c(-c2ccccc2)nc2ccccc2c1=O
[out] inactive

[in] Field: outcome | Entry: COC(=O)N/N=C(\C)C(CN(C)C)C(c1ccccc1)c1c(O)c2ccccc2oc1=O (stereo not drawn)
[out] inactive

[in] Field: outcome | Entry: C1CNCCN2CCCNCCN(C1)CC2
[out] inactive
